Test system: EKVX NSCLC
Test description: NCI tumour cell line growth inhibition, 48 h
Experimental endpoint: TGI

Take a look at these entries with their results.
[
  {
    "Compound": "COc1ccc2c(c1)[C@@H]1c3cc(OC)c(OC)cc3CCN1CCC2",
    "Experimental endpoint": "TGI",
    "Observed result": "> 100 µM"
  },
  {
    "Compound": "CCCSc1ccc2nc(NC(=O)OC)[nH]c2c1",
    "Experimental endpoint": "TGI",
    "Observed result": "> 100 µM"
  },
  {
    "Compound": "CC1=C(C(=O)OCc2ccncc2)C(C2=C(C)SCCS2)C(C(=O)OCc2ccncc2)=C(C)N1",
    "Experimental endpoint": "TGI",
    "Observed result": "> 100 µM"
  },
  {
    "Compound": "Cc1cccc(C(C)(C)C)c1NC(=O)CCl",
    "Experimental endpoint": "TGI",
    "Observed result": "> 100 µM"
  },
  {
    "Compound": "O=C1C=CC(=O)c2c1ccc1c3ccccc3n(CCCCCCCCn3c4ccccc4c4ccc5c(c43)C(=O)C=CC5=O)c21",
    "Experimental endpoint": "TGI",
    "Observed result": "> 100 µM"
  }
]

I would be grateful if you could provide TGI for each of the following entries.
1. O=C(c1ccc(Cl)cc1Cl)N(/N=C/C=C/c1ccccc1)c1nnc(-c2ccccc2)c(-c2ccccc2)n1
2. C[CH2][Sn]([CH2]C)([O]C(=O)c1cccc(OC)c1)[O][Sn]([CH2]C)([CH2]C)[O]C(=O)c1cccc(OC)c1
3. C=C1CC2(OC1=O)C(=O)N(C)c1ccc(I)cc12 (configuration not stated)

Result:
1. > 100 µM
2. > 55.6 µM
3. 8.15 µM

I would be grateful if you could provide TGI for each of the following entries.
1. CC(=O)[CH-]C(=O)c1ccccc1.CC(=O)[CH-]C(=O)c1ccccc1.CCN(CC)CC[O-].CCN(CC)CC[O-].Cl.[Hf+4]
2. O=C1c2ccccc2C(=O)c2c1c(=O)c(=O)c1ccccc1c(=O)n2Cc1ccccc1
3. Cc1cc(C#N)c[n+](C)c1

Result:
1. > 100 µM
2. > 100 µM
3. > 100 µM

I would be grateful if you could provide TGI for each of the following entries.
1. CCN(CC)CCCC(CO)Nc1ccnc2cc(Cl)ccc12 (configuration not stated)
2. COc1cccc2c1C(=O)c1c(O)c3c(c(O)c1C2=O)CC(O)(/C(C)=N/NC(=O)CCCCC(=O)N/N=C(\C)C1(O)Cc2c(O)c4c(c(O)c2C(OC2CC(N)C(O)C(C)O2)C1)C(=O)c1c(OC)cccc1C4=O)CC3OC1CC(N)C(O)C(C)O1 (configuration not stated)
3. CN(C)c1ccc(Nc2ncnc3ccccc23)cc1
4. CC(C)=CC(=O)c1[nH]c2ccccc2c1CC(=O)NCCc1cn(C(c2ccccc2)(c2ccccc2)c2ccccc2)cn1

Result:
1. > 100 µM
2. 21 µM
3. > 100 µM
4. > 100 µM
